# study_target: Paired box protein Pax-8 (Homo sapiens)
# Sequence (Q06710 whole entry): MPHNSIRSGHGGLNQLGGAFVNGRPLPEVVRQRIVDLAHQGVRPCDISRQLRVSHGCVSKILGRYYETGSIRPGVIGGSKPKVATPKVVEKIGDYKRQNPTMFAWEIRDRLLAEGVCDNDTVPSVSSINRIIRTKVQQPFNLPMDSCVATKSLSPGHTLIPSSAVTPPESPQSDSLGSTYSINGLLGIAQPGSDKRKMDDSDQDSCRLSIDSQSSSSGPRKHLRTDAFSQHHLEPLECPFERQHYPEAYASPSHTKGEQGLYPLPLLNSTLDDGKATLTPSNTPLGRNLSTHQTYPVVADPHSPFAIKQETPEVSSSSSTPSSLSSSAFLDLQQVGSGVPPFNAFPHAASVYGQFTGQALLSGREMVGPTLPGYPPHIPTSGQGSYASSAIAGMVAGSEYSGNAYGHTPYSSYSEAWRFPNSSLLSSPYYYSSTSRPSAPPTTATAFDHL
# assay_remarks: PAX8 transcriptional activity inhibition in RMG-I – RMG-I cells, luciferase, cherry-pick, dose response (AID 687027);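 note: luciferase reporter driven by Pax8 target thyroperoxidase promoter measured by SteadyGlo luminescence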
# Format: functional, cell-based
Active and inactive are the calls of the source. The rule behind the calls is not given here.
Each entry below carries its recorded AC50.

Use the examples below as a reference point.
compound	AC50
N#Cc1ccc(NC(=O)COC(=O)C2CCC2)cc1	21.7 µM (active)
Oc1nc2ccccc2n1C1CCN(C(CCc2ccccc2)c2nnnn2Cc2ccccc2)CC1 (stereo not drawn)	1.4 µM (active)

// returns reported AC50 for input C[C@@H]1CN([C@H](C)CO)C(=O)CCCn2cc(nn2)CO[C@H]1CN(C)C(=O)Nc1ccc(-c2cccs2)cc1 < 0.26 µM (active)

// returns reported AC50 for input O=C(C1CCC1)N1CC(=O)N2[C@H](C1)[C@H](c1ccc(C#Cc3cccc(F)c3)cc1)[C@@H]2CO 10.6 µM (active)
